Run description: Swelling of micro-capsules with single fragrance raw materials (mass fraction in swollen micro-capsule)
Type: physicochemical
Measurement setup: micro-capsules of Example 4 swelled with excess raw material, 1 to 3 days
Parameter measured: Fragrance mass fraction in the final swollen micro-capsule weight [%] (%)

Compound: O=C1CCCCCCCCC/C=C/CCCO1 [Habanolide ®, pentadecenolide]
Meas value: 50.3

Compound: CC(C)=CCC/C(C)=C/CO
Meas value: 36.2

Compound: CCCCCCOC(=O)c1ccccc1O [Hexyl salicylate]
Meas value: 50.7

Compound: CC(=O)OCc1ccccc1 [Benzyl acetate]
Meas value: 49.8
